system.under.test: dipeptidyl peptidase IV (Homo sapiens, UniProt P27487)
Sequence (P27487 whole entry, species assumed): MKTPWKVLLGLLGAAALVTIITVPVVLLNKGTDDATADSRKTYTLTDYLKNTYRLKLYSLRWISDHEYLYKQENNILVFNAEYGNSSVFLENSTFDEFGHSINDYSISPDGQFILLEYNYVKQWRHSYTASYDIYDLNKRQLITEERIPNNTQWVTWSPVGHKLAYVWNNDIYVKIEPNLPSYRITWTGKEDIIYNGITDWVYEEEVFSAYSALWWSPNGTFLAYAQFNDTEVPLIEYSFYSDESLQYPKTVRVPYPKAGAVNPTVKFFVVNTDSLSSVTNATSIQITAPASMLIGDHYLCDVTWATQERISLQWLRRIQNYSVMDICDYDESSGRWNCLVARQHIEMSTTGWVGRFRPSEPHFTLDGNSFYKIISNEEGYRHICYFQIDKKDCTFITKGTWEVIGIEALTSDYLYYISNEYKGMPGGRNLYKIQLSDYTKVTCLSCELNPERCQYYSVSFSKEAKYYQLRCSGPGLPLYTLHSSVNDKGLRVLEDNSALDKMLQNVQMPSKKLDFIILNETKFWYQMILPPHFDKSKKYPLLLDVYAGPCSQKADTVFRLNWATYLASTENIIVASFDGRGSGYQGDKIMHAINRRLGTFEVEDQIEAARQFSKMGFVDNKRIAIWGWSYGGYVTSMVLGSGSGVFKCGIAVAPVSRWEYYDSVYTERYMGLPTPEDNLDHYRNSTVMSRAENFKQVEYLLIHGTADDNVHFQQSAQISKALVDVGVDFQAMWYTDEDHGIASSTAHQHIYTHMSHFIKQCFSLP
test.name: biochemical
test.parameters: values without "*" = IC-50; read-out: IC50DPIV
metric: IC50 (µM)

[[record]]
molecule = "COc1cc(Br)ccc1OCC(=O)N/N=C/c1cc(Br)c(O)c(O)c1Br"
measurement_units = "µM"
recorded_measurement = 45

[[record]]
molecule = "CCOC(=O)c1cc(-c2ccc(/C=C3/C(=O)NC(=O)C(C#N)=C3C)o2)ccc1Cl [D6.082]"
measurement_units = "µM"
recorded_measurement = 56.7

[[record]]
molecule = "COc1ccc(/C=N/N=C2\\NC(=O)C(Cc3cccc(C(F)(F)F)c3)S2)cc1 (stereo not shown)"
measurement_units = "µM"
recorded_measurement = 34.2

[[record]]
molecule = "CCOc1ccc(/C=N/NC(=O)c2cc(-c3c(OC)ccc4ccccc34)n[nH]2)cc1 [D10.083]"
measurement_units = "µM"
recorded_measurement = 56.3

[[record]]
molecule = "CCOC(=O)c1c(N2C(=O)C3ON(c4ccccc4)C(c4ccc([N+](=O)[O-])cc4)C3C2=O)sc2c1CCCC2 (stereo not shown)"
measurement_units = "µM"
recorded_measurement = 54.1

[[record]]
molecule = "CCC(=O)Oc1ccc2c(c1)OC1(OC(C)=O)OC(C)CC1=C2C (stereo not shown)"
measurement_units = "µM"
recorded_measurement = 37.4

[[record]]
molecule = "Cc1ccc(S(=O)(=O)CNC(=S)c2ccc3ccccc3c2)cc1 [D3.019]"
measurement_units = "µM"
recorded_measurement = 14.5

[[record]]
molecule = "Cc1cccc(-n2c(=O)c3c4c(sc3n3c(CC(C)C(=O)N5CCOCC5)nnc23)COC(C(C)C)C4)c1 (stereo not shown)"
measurement_units = "µM"
recorded_measurement = 10.1

[[record]]
molecule = "C/C(=N/OC(=O)C(C)(C)C)c1cc2ccccc2oc1=O"
measurement_units = "µM"
recorded_measurement = 14.1

[[record]]
molecule = "COc1ccc(/C(C)=N/NC(=O)CNc2ccc3ccccc3c2)cc1OC"
measurement_units = "µM"
recorded_measurement = 32.9

